Values were extracted from PubChem BioAssay (Tox21).

Target: Peroxisome proliferator-activated receptor gamma (Homo sapiens)
Test: qHTS assay to identify small molecule agonists of the peroxisome proliferator-activated receptor gamma (PPARg) signaling pathway (AID 743094)
Settings: HEK293H PPARg-UAS-bla, beta-lactamase FRET ratio, 17 h; series mostly up to 57 µM
Results filed as inconclusive are left out. Activity calls are given as the source filed them. The call rests on the fitted dose curve; in most records, active means well fitted activation curve with a large enough effect in the signal ratio in the repeat runs (not every such curve was filed as active); inconclusive means weak or mixed curves, or effect the other way; inactive means no such curve, though single readings can be large or run the other way; the % refers to the signal ratio.
Outcome codes: active, inactive

[
  {
    "MOLECULE": "Cc1scc2c1N(C(=O)CN1CCN(C)CC1)c1ccccc1NC2=O",
    "SUBJECT_OF_TEST": "Peroxisome proliferator-activated receptor gamma (Homo sapiens)",
    "LABEL": "inactive"
  },
  {
    "MOLECULE": "CO[Si](OC)(OC)c1ccccc1",
    "SUBJECT_OF_TEST": "Peroxisome proliferator-activated receptor gamma (Homo sapiens)",
    "LABEL": "inactive"
  },
  {
    "MOLECULE": "O=C(O)c1cccc(C(=O)O)c1",
    "SUBJECT_OF_TEST": "Peroxisome proliferator-activated receptor gamma (Homo sapiens)",
    "LABEL": "inactive"
  },
  {
    "MOLECULE": "C1COC(NC(C2CC2)C2CC2)=N1",
    "SUBJECT_OF_TEST": "Peroxisome proliferator-activated receptor gamma (Homo sapiens)",
    "LABEL": "inactive"
  },
  {
    "MOLECULE": "CCOc1ccc2c(c1)C(C)=CC(C)(C)N2",
    "SUBJECT_OF_TEST": "Peroxisome proliferator-activated receptor gamma (Homo sapiens)",
    "LABEL": "active"
  },
  {
    "MOLECULE": "Oc1ccc(Cl)cc1Cc1cc(Cl)ccc1O",
    "SUBJECT_OF_TEST": "Peroxisome proliferator-activated receptor gamma (Homo sapiens)",
    "LABEL": "inactive"
  },
  {
    "MOLECULE": "CC(C)CCCCCCc1ccc(O)cc1",
    "SUBJECT_OF_TEST": "Peroxisome proliferator-activated receptor gamma (Homo sapiens)",
    "LABEL": "inactive"
  },
  {
    "MOLECULE": "CCCCC/C=C/CC1CC(=O)OC1=O (centres undefined)",
    "SUBJECT_OF_TEST": "Peroxisome proliferator-activated receptor gamma (Homo sapiens)",
    "LABEL": "inactive"
  },
  {
    "MOLECULE": "OCC(CO)N[C@H]1C[C@](O)(CO)[C@@H](O)[C@H](O)[C@H]1O",
    "SUBJECT_OF_TEST": "Peroxisome proliferator-activated receptor gamma (Homo sapiens)",
    "LABEL": "inactive"
  },
  {
    "MOLECULE": "O=C(O)c1cn(-c2ccc(F)cc2)c2cc(N3CCNCC3)c(F)cc2c1=O",
    "SUBJECT_OF_TEST": "Peroxisome proliferator-activated receptor gamma (Homo sapiens)",
    "LABEL": "inactive"
  },
  {
    "MOLECULE": "CNC1(C)C2CCC(C2)C1(C)C (centres undefined)",
    "SUBJECT_OF_TEST": "Peroxisome proliferator-activated receptor gamma (Homo sapiens)",
    "LABEL": "inactive"
  },
  {
    "MOLECULE": "CC(N)=O",
    "SUBJECT_OF_TEST": "Peroxisome proliferator-activated receptor gamma (Homo sapiens)",
    "LABEL": "inactive"
  },
  {
    "MOLECULE": "NC12CC3CC(CC(C3)C1)C2",
    "SUBJECT_OF_TEST": "Peroxisome proliferator-activated receptor gamma (Homo sapiens)",
    "LABEL": "inactive"
  },
  {
    "MOLECULE": "Nc1cc(S(=O)(=O)O)cc2cc(S(=O)(=O)O)cc(O)c12",
    "SUBJECT_OF_TEST": "Peroxisome proliferator-activated receptor gamma (Homo sapiens)",
    "LABEL": "inactive"
  }
]
